Test system: MCF7 breast
Assay: NCI-60 one-dose screen, 48 h
Conditions: 10 µM unless noted
About 83,000 compounds went through this panel and 20% of them were active in at least one assay; those are over-represented in the sample as a whole. The source made the active and inactive calls. Rule for the calls: active = growth percent below 10; inactive = the rest.
The categories you may choose from are 1.0 = active, 0.0 = inactive

compound=CCOC(=O)c1cc(C(=O)c2cc(OC)c(OC)c(OC)c2)n2ccc(-c3ccncc3)cc12 group=0.0
compound=COc1cccc(/C=C/C(=O)c2cc3c(N)c(C(=O)Nc4ccccc4)sc3nc2C)c1 group=1.0
compound=O=C1/C(=C/c2cccs2)SC(=S)N1CCCN1CCOCC1 group=0.0

Dear colleague, could you share the recorded outcome for "O=C1Nc2ccccc2/C1=C\c1nc(-c2ccccc2)n2ccccc12" when you have a moment? 0.0

Dear colleague, could you share the recorded outcome for "Cc1cc2c(O)c(-c3cc(Cl)ccc3Cl)c3sc(=O)oc3c2cc1C" when you have a moment? 0.0

* * *

System: SW-620 colon
Test: NCI-60 one-dose screen, 48 h (100 = growth as untreated, 0 = no growth, -100 = all killed)
Settings: 10 µM unless noted
Compounds without any hit were thinned out: in the full panel of roughly 83,000, 20% have a hit.
Response field class: enum, chosen by comparing growth against bin 0 = under 30%, bin 1 = from 30% up to 90%, bin 2 = 90% and over

chemical_structure=COc1ccc(-c2csc(NC(=O)CSc3nc(-c4ccccc4)cc(=O)[nH]3)n2)cc1 measured_target="SW-620 colon" group="bin 2"
chemical_structure=Cn1c(O)c(C=NCCN=Cc2c(O)n(C)c(=O)n(C)c2=O)c(=O)n(C)c1=O measured_target="SW-620 colon" group="bin 2"
chemical_structure=COc1ccc(-c2nc3c(c(-c4ccccc4)nn3-c3ccccc3)c(-c3ccc(N4CCN(C)CC4)cc3)c2C#N)cc1 measured_target="SW-620 colon" group="bin 1"
chemical_structure=COc1ccc(-c2csc(N(C(=O)N3CCN(c4cc5c(cc4F)c(=O)c(C(=O)O)cn5C4CC4)CC3)c3ccccc3)n2)cc1 measured_target="SW-620 colon" group="bin 0"

Continue with the next molecule.
Category of "O=C(Cn1c(=O)sc2ccccc21)NNS(=O)(=O)c1ccccc1[N+](=O)[O-]" , please. bin 2

* * *

# growth per record follows
System: HCT-15 colon
Assay: NCI-60 one-dose screen, 48 h (100 = growth as untreated, 0 = no growth, -100 = all killed)
Settings: 10 µM unless noted
The panel holds about 83,000 compounds, 20% with a hit somewhere; the sample as a whole holds those more often.
State just the number; it will be interpreted in %.

Consider the reported growth for these compounds:
chemical_structure=COC(=O)c1n[nH]c2ccc3nc(-c4cn[nH]c4C(F)(F)F)c4c(c3c12)CCCC4 measured_target="HCT-15 colon" test_result=39
chemical_structure=COc1cnc2c(c1)C(=O)c1c-2n(CCCNCCO)c(=O)c2ccncc12 measured_target="HCT-15 colon" test_result=23.1
chemical_structure=O=C(OCc1ccc2c(Cl)cc(Cl)c(O)c2n1)n1cncn1 measured_target="HCT-15 colon" test_result=19.3
chemical_structure=O=C(CSc1nc(-c2ccccc2)[nH]c1S(=O)(=O)c1ccccc1)NC1CC1 measured_target="HCT-15 colon" test_result=28.2

Please examine the following record next.
Which growth value is on record for "Oc1ccc(CN2CCC(N3CCCCC3)CC2)c2cccnc12" ? 18
